Record form. Attribute: Ki. Fill in for each entry.
Target: rNaV1.4 channel (Rattus norvegicus, UniProt P15390)
Sequence (P15390 whole entry): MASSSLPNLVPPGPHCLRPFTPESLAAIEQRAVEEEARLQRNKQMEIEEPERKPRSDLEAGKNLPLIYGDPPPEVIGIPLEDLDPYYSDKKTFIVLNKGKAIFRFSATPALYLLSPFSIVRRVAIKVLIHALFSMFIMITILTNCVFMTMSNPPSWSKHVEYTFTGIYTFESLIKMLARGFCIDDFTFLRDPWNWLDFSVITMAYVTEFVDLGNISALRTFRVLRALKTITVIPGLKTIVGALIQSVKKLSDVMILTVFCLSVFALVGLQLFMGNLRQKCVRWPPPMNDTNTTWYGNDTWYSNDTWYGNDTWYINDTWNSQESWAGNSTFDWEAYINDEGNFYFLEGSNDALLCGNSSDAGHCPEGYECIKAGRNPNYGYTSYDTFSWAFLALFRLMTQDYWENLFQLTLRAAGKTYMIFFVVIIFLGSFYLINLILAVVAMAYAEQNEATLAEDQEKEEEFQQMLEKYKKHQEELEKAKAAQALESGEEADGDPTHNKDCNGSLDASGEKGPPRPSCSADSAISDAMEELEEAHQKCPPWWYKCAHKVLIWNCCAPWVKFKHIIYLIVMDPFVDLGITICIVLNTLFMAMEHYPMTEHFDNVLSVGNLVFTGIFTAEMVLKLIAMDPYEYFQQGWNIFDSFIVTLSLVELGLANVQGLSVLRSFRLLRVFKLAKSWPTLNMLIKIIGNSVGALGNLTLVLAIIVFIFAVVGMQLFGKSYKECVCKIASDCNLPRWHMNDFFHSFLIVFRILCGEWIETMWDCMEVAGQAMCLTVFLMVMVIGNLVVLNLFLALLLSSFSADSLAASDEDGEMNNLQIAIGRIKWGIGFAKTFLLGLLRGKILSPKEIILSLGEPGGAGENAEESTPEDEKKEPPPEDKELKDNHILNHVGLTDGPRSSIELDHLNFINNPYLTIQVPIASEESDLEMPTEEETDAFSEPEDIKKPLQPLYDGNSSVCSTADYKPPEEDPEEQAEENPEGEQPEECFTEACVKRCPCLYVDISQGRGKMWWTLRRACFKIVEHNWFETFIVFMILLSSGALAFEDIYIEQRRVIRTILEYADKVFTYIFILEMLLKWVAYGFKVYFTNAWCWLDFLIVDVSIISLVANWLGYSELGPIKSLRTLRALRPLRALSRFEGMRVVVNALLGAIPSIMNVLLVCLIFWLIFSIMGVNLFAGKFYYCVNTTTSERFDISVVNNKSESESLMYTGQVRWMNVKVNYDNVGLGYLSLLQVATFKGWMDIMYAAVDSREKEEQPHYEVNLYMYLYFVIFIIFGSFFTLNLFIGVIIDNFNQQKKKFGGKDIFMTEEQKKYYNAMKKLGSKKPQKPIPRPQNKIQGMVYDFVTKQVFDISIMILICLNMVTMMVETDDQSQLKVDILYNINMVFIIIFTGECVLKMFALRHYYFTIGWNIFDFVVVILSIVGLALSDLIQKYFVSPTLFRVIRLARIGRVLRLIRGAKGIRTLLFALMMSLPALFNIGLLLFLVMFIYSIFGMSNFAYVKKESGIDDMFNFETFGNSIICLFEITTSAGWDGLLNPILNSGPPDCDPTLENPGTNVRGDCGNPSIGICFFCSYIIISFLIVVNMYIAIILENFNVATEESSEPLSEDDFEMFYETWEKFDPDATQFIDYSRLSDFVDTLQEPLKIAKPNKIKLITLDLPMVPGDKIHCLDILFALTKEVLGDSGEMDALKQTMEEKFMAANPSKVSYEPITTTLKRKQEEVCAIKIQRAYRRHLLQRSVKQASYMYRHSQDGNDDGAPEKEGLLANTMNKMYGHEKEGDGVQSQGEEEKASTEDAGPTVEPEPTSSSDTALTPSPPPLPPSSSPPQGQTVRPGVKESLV
Experiment: automated patch-clamp 17-pulse protocol (SDO, RFI, SSI), IonFlux Mercury, cell ensembles
Settings: inactivated-state affinity, calculated with equation of Bean et al. (1983)
Number only, in µM; omit the unit.

## Task # Ki lookup, item Nc1nc2ccc(OC(F)(F)F)cc2s1
## Result 5.63

## Task # Ki lookup, item CCCCN1CCCCC1C(=O)Nc1c(C)cccc1C (stereo not shown)
## Result 12.7

## Task # Ki lookup, item CCOC(=O)c1ccc(N)cc1
## Result 79.4

## Task # Ki lookup, item CCN(CC)CC(=O)Nc1c(C)cccc1C
## Result 18.4
